The following compounds are listed with their measured pIC50 values.
# measured_on: Protein deacetylase HDAC6 (Homo sapiens)
# Sequence (Q9UBN7 whole entry): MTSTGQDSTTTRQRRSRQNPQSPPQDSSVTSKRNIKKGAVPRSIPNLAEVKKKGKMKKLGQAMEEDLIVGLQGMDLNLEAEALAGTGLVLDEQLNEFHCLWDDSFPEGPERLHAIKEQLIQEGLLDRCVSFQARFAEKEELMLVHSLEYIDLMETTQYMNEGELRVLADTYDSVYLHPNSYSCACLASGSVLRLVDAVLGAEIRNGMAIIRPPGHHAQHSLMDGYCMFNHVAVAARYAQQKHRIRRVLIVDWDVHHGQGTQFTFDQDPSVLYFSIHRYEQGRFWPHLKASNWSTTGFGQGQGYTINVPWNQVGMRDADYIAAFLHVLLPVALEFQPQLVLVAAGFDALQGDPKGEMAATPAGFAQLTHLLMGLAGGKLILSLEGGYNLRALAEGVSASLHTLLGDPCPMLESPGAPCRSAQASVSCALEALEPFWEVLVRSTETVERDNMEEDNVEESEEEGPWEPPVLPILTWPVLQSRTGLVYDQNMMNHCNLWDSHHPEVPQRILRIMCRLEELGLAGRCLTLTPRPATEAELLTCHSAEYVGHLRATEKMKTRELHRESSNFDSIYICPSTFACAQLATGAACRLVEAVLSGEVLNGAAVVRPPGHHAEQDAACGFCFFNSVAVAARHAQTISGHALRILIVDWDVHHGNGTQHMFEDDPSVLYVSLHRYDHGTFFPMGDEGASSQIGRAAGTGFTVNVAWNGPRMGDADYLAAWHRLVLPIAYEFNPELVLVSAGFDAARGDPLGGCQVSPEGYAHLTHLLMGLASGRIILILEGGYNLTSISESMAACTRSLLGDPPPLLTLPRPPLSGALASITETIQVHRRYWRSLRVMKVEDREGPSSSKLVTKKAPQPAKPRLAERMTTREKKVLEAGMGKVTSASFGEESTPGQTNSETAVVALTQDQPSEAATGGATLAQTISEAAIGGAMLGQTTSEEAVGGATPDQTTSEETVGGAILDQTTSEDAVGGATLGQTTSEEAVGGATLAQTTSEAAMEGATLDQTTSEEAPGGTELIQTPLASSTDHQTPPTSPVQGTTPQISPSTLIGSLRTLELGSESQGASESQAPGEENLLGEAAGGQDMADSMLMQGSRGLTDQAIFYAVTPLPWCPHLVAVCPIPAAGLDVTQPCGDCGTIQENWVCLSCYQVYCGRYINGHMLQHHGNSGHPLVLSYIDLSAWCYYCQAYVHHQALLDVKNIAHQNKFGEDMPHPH
# experiment_notes: Inhibition of recombinant human HDAC6 using Boc-Lys (Ac)-AMC as substrate after 60 mins by fluorometric analysis
Please treat pIC50 as minus the base-10 logarithm of the molar concentration.

Look over these answered cases.
Query string: Returns the measured pIC50 for the input compound. Input: COc1ccc(-c2nc(NC(=O)NCCCC(=O)NO)cc3c4ccccc4n(C)c23)cc1
Result string: 6.82

Query string: Returns the measured pIC50 for the input compound. Input: COc1ccc(-c2nc(NC(=O)NCCCCC(=O)NO)cc3c2[nH]c2ccccc23)cc1
Result string: 7.03

Query string: Returns the measured pIC50 for the input compound. Input: COc1ccc(-c2nc(NC(=O)NCCCC(=O)NO)cc3c2[nH]c2ccccc23)cc1
Result string: 7.47

Query string: Returns the measured pIC50 for the input compound. Input: COc1ccc(-c2nc(NC(=O)NCCC(=O)NO)cc3c2[nH]c2ccccc23)cc1
Result string: 6.44

Shift focus to the following entry.
Query string: Returns the measured pIC50 for the input compound. Input: COc1ccc(-c2nc(C(=O)NCCCC(=O)NO)cc3c2[nH]c2ccccc23)cc1
Result string: 7.21
